Source listed as PubChem BioAssay AID1919002.

system: 743489-274-T-PDC complex spheroid growth; test: Anticancer human tumor 743489-274-T-PDC patient-derived renal cell carcinoma cell line growth inhibition [AhR]; conditions: curve of first compound; second compound 10 µM
Readout kind: IC50

// known answers, use as guide
>  <Compound>
O=C(C=Cc1cccc(S(=O)(=O)Nc2ccccc2)c1)NO + Cc1cncc(-c2nc(NCCc3c[nH]c4ccccc34)c3ncn(C(C)C)c3n2)c1

>  <Readout kind>
IC50

>  <Experimental value>
> 10000 nM

$$$$
>  <Compound>
CCc1c2c(nc3ccc(O)cc13)-c1cc3c(c(=O)n1C2)COC(=O)[C@]3(O)CC + Cc1ccccc1N=Nc1ccc(NC(=O)c2ccnn2C)c(C)c1

>  <Readout kind>
IC50

>  <Experimental value>
86.2 nM

$$$$

stdin: Form field: IC50 recorded for CCc1c2c(nc3ccc(O)cc13)-c1cc3c(c(=O)n1C2)COC(=O)[C@]3(O)CC + Cc1cncc(-c2nc(NCCc3c[nH]c4ccccc34)c3ncn(C(C)C)c3n2)c1 with 743489-274-T-PDC complex spheroid growth (enter value)
stdout: > 300 nM

* * *

test system: 743489-274-T-PDC complex spheroid growth; experiment: Anticancer human tumor 743489-274-T-PDC cell line growth inhibition [AhR]; conditions: second compound 0.316 µM; first compound 0.00949 µM; stronger effect = lower value;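 also: spheroids exposed to agents for 7 days before readout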;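 as to viability, T/C: 100% = DMSO vehicle control wells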
Readout kind: viability, T/C (%)
Please reply with the bare figure in % and do not write the unit itself.

stdin: Form field: viability, T/C recorded for CCN(c1cc(-c2ccc(CN3CCOCC3)cc2)cc(C(=O)NCc2c(C)cc(C)[nH]c2=O)c1C)C1CCOCC1 + CC(CO)NC(=O)c1cc(-c2ccc(Cl)cc2)nn(-c2cnn(C)c2)c1=O with 743489-274-T-PDC complex spheroid growth (enter value)
stdout: 97.6

stdin: Form field: viability, T/C recorded for Nc1ncn(C2CC(O)C(CO)S2)c(=O)n1 (stereo not given) + CC(CO)NC(=O)c1cc(-c2ccc(Cl)cc2)nn(-c2cnn(C)c2)c1=O with 743489-274-T-PDC complex spheroid growth (enter value)
stdout: 93

stdin: Form field: viability, T/C recorded for CCN(c1cc(-c2ccc(CN3CCOCC3)cc2)cc(C(=O)NCc2c(C)cc(C)[nH]c2=O)c1C)C1CCOCC1 + Cc1ccccc1N=Nc1ccc(NC(=O)c2ccnn2C)c(C)c1 with 743489-274-T-PDC complex spheroid growth (enter value)
stdout: 82.1

stdin: Form field: viability, T/C recorded for CC(C)CC(NC(=O)C(Cc1ccccc1)NC(=O)c1cnccn1)B(O)O (stereo not given) + CC(CO)NC(=O)c1cc(-c2ccc(Cl)cc2)nn(-c2cnn(C)c2)c1=O with 743489-274-T-PDC complex spheroid growth (enter value)
stdout: 102

stdin: Form field: viability, T/C recorded for O=C(C=Cn1cnc(-c2cc(C(F)(F)F)cc(C(F)(F)F)c2)n1)NNc1cnccn1 + CC(CO)NC(=O)c1cc(-c2ccc(Cl)cc2)nn(-c2cnn(C)c2)c1=O with 743489-274-T-PDC complex spheroid growth (enter value)
stdout: 86.7

stdin: Form field: viability, T/C recorded for CCc1c2c(nc3ccc(O)cc13)-c1cc3c(c(=O)n1C2)COC(=O)[C@]3(O)CC + CC(CO)NC(=O)c1cc(-c2ccc(Cl)cc2)nn(-c2cnn(C)c2)c1=O with 743489-274-T-PDC complex spheroid growth (enter value)
stdout: 103

stdin: Form field: viability, T/C recorded for O=C(C=Cn1cnc(-c2cc(C(F)(F)F)cc(C(F)(F)F)c2)n1)NNc1cnccn1 + Cc1ccccc1N=Nc1ccc(NC(=O)c2ccnn2C)c(C)c1 with 743489-274-T-PDC complex spheroid growth (enter value)
stdout: 105

stdin: Form field: viability, T/C recorded for CCc1c2c(nc3ccc(O)cc13)-c1cc3c(c(=O)n1C2)COC(=O)[C@]3(O)CC + Cc1cncc(-c2nc(NCCc3c[nH]c4ccccc34)c3ncn(C(C)C)c3n2)c1 with 743489-274-T-PDC complex spheroid growth (enter value)
stdout: 98.5

stdin: Form field: viability, T/C recorded for CC(C)CC(NC(=O)C(Cc1ccccc1)NC(=O)c1cnccn1)B(O)O (stereo not given) + Cc1ccccc1N=Nc1ccc(NC(=O)c2ccnn2C)c(C)c1 with 743489-274-T-PDC complex spheroid growth (enter value)
stdout: 100

stdin: Form field: viability, T/C recorded for CC(C)CC(NC(=O)C(Cc1ccccc1)NC(=O)c1cnccn1)B(O)O (stereo not given) + Cc1cncc(-c2nc(NCCc3c[nH]c4ccccc34)c3ncn(C(C)C)c3n2)c1 with 743489-274-T-PDC complex spheroid growth (enter value)
stdout: 108

stdin: Form field: viability, T/C recorded for CCN(c1cc(-c2ccc(CN3CCOCC3)cc2)cc(C(=O)NCc2c(C)cc(C)[nH]c2=O)c1C)C1CCOCC1 + Cc1cncc(-c2nc(NCCc3c[nH]c4ccccc34)c3ncn(C(C)C)c3n2)c1 with 743489-274-T-PDC complex spheroid growth (enter value)
stdout: 94.8

stdin: Form field: viability, T/C recorded for CCc1c2c(nc3ccc(O)cc13)-c1cc3c(c(=O)n1C2)COC(=O)[C@]3(O)CC + Cc1ccccc1N=Nc1ccc(NC(=O)c2ccnn2C)c(C)c1 with 743489-274-T-PDC complex spheroid growth (enter value)
stdout: 94.8

* * *

test system: 743489-274-T-PDC complex spheroid growth; test: Anticancer human tumor 743489-274-T-PDC cell line growth inhibition [AhR]; conditions: second compound 1 µM; first compound 0.01 µM; stronger effect = lower value;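 also: spheroids exposed to agents for 7 days before readout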;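 as to viability, T/C: 100% = DMSO vehicle control wells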
Readout kind: viability, T/C (%)
Please reply with the bare figure in % and do not write the unit itself.

// known answers, use as guide
>  <Compound>
Nc1ncn(C2CC(O)C(CO)O2)c(=O)n1 (stereo not given) + CC(CO)NC(=O)c1cc(-c2ccc(Cl)cc2)nn(-c2cnn(C)c2)c1=O

>  <Measurement target>
743489-274-T-PDC complex spheroid growth

>  <viability, T/C, %>
93.2

$$$$
>  <Compound>
Cn1ncnc1C1c2n[nH]c(=O)c3cc(F)cc(c23)NC1c1ccc(F)cc1 (stereo not given) + Cc1cncc(-c2nc(NCCc3c[nH]c4ccccc34)c3ncn(C(C)C)c3n2)c1

>  <Measurement target>
743489-274-T-PDC complex spheroid growth

>  <viability, T/C, %>
101

$$$$
>  <Compound>
Cn1ncnc1C1c2n[nH]c(=O)c3cc(F)cc(c23)NC1c1ccc(F)cc1 (stereo not given) + CC(CO)NC(=O)c1cc(-c2ccc(Cl)cc2)nn(-c2cnn(C)c2)c1=O

>  <Measurement target>
743489-274-T-PDC complex spheroid growth

>  <viability, T/C, %>
87

$$$$

stdin: So what does the record say about viability, T/C for CC[C@@]1(O)C(=O)OCc2c1cc1n(c2=O)Cc2cc3c(CN(C)C)c(O)ccc3nc2-1 + Cc1cncc(-c2nc(NCCc3c[nH]c4ccccc34)c3ncn(C(C)C)c3n2)c1 ?
stdout: 89.8

stdin: So what does the record say about viability, T/C for CC1COCCN1c1cc(-c2ccnn2C)c2ccnc(-c3ccn[nH]3)c2n1 (stereo not given) + CC(CO)NC(=O)c1cc(-c2ccc(Cl)cc2)nn(-c2cnn(C)c2)c1=O ?
stdout: 90

* * *

Here, each record is paired with measured viability, T/C data.
system: 743489-274-T-PDC complex spheroid growth; experiment: Anticancer human tumor 743489-274-T-PDC cell line growth inhibition [AhR]; conditions: second compound 1 µM; first compound 0.01 µM; stronger effect = lower value;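 also: spheroids exposed to agents for 7 days before readout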;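 as to viability, T/C: 100% = DMSO vehicle control wells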
Please reply with the bare figure in % and do not write the unit itself.

// known answers, use as guide
>  <Compound>
CC1COCCN1c1cc(-c2ccnn2C)c2ccnc(-c3ccn[nH]3)c2n1 (configuration not stated) + Cc1cncc(-c2nc(NCCc3c[nH]c4ccccc34)c3ncn(C(C)C)c3n2)c1

>  <Measurement target>
743489-274-T-PDC complex spheroid growth

>  <Experimental value>
104

$$$$
>  <Compound>
Nc1ncn(C2CC(O)C(CO)O2)c(=O)n1 (configuration not stated) + Cc1ccccc1N=Nc1ccc(NC(=O)c2ccnn2C)c(C)c1

>  <Measurement target>
743489-274-T-PDC complex spheroid growth

>  <Experimental value>
99.1

$$$$
>  <Compound>
Nc1ncn(C2CC(O)C(CO)O2)c(=O)n1 (configuration not stated) + Cc1cncc(-c2nc(NCCc3c[nH]c4ccccc34)c3ncn(C(C)C)c3n2)c1

>  <Measurement target>
743489-274-T-PDC complex spheroid growth

>  <Experimental value>
107

$$$$
>  <Compound>
CC1COCCN1c1cc(-c2ccnn2C)c2ccnc(-c3ccn[nH]3)c2n1 (configuration not stated) + Cc1ccccc1N=Nc1ccc(NC(=O)c2ccnn2C)c(C)c1

>  <Measurement target>
743489-274-T-PDC complex spheroid growth

>  <Experimental value>
98.5

$$$$

stdin: Form field: viability, T/C recorded for CC[C@@]1(O)C(=O)OCc2c1cc1n(c2=O)Cc2cc3c(CN(C)C)c(O)ccc3nc2-1 + Cc1ccccc1N=Nc1ccc(NC(=O)c2ccnn2C)c(C)c1 with 743489-274-T-PDC complex spheroid growth (enter value)
stdout: 81.1

stdin: Form field: viability, T/C recorded for Cn1ncnc1C1c2n[nH]c(=O)c3cc(F)cc(c23)NC1c1ccc(F)cc1 (configuration not stated) + Cc1ccccc1N=Nc1ccc(NC(=O)c2ccnn2C)c(C)c1 with 743489-274-T-PDC complex spheroid growth (enter value)
stdout: 96.7

stdin: Form field: viability, T/C recorded for CC[C@@]1(O)C(=O)OCc2c1cc1n(c2=O)Cc2cc3c(CN(C)C)c(O)ccc3nc2-1 + CC(CO)NC(=O)c1cc(-c2ccc(Cl)cc2)nn(-c2cnn(C)c2)c1=O with 743489-274-T-PDC complex spheroid growth (enter value)
stdout: 87
